- System: SCC-25 (tongue, squamous cell carcinoma) cells
- assay-details: Cell viability assay, CellTiter-Glo (Example 21)
- Format: cell-based, human
- condition-summary: 100 nM, 72 h treatment
observed-property: SCC-25 (tongue, squamous cell carcinoma) cell viability (% of control)

• [N-]=[N+]=Nc1ccc(CN2C(=O)C3=C(CCN(Cc4cc(F)cc(F)c4)C3)N3CCN=C23)cc1 = 35.4 ± 5.7 % of control
• [N-]=[N+]=Nc1cccc(CN2CCC3=C(C2)C(=O)N(Cc2ccc(Cl)cc2)C2=NCCN23)c1 = 34.7 ± 4.9 % of control
• O=C1C2=C(CCN(Cc3ccccc3)C2)N2CCN=C2N1Cc1ccc(C(F)(F)F)cc1 [I/1, reference compound] = 76.7 ± 19.9 % of control
• O=C1C2=C(CCN(Cc3cc(F)cc(F)c3)C2)N2CCN=C2N1Cc1ccc(C(F)(F)F)cc1 = 32.9 ± 2.1 % of control

###

- Test system: DU 145 (prostate, carcinoma) cells
- assay-details: Cell viability assay, CellTiter-Glo (Example 21)
- Assay type: cell-based, human
- condition-summary: 3.7 nM, 72 h
Overview of recorded DU 145 cell viability for various compounds
observed-property: DU 145 cell viability

* O=C1C2=C(CCN(Cc3ccccc3)C2)N2CCN=C2N1Cc1ccc(C(F)(F)F)cc1 [I/1, reference compound] | 99.0 ± 4.6 % of control
* O=C1C2=C(CCN(Cc3cccc(F)c3)C2)N2CCN=C2N1Cc1ccc(F)cc1 [I/6, reference compound] | 96.8 ± 3.7 % of control
* O=C1C2=C(CCN(Cc3cc(F)cc(F)c3)C2)N2CCN=C2N1Cc1ccc(Cl)cc1 [I/124] | 10.0 ± 1.4 % of control
* [N-]=[N+]=Nc1ccc(CN2C(=O)C3=C(CCN(Cc4cc(F)cc(F)c4)C3)N3CCN=C23)cc1 [I/107] | 101.2 ± 6.5 % of control
* [N-]=[N+]=Nc1cccc(CN2CCC3=C(C2)C(=O)N(Cc2ccc(Cl)cc2)C2=NCCN23)c1 [I/133] | 98.8 ± 6.7 % of control
* O=C1C2=C(CCN(Cc3cc(F)cc(F)c3)C2)N2CCN=C2N1Cc1ccc(C(F)(F)F)cc1 [I/30] | 37.2 ± 10.4 % of control
* O=C1C2=C(CCN(Cc3cc(F)cc(F)c3)C2)N2CCN=C2N1Cc1ccc(F)cc1 [I/7] | 64.1 ± 8.0 % of control
* O=C1C2=C(CCN(Cc3cccc(F)c3)C2)N2CCN=C2N1Cc1ccc(C(F)(F)F)cc1 [I/3, reference compound] | 102.0 ± 3.5 % of control
* [N-]=[N+]=Nc1cccc(CN2CCC3=C(C2)C(=O)N(Cc2ccc(C(F)(F)F)cc2)C2=NCCN23)c1 [I/111] | 93.6 ± 6.9 % of control

###

- System: U-87 (human primary glioblastoma) cells
- assay-details: Short term cytotoxicity, MTT assay
- Type: cell-based
- condition-summary: 1 h treatment then 72 h culture, read-out: cytotoxicity expressed in IC50, U-87
pIC50: −log10 of the molar value.
Short version: pIC50 at least 5 is T, less is F.

- O=C1C2=C(CCN(Cc3cccc(F)c3)C2)N2CCN=C2N1Cc1ccc(C(F)(F)F)cc1 [I/3, reference compound]: T
- O=C1C2=C(CCN(Cc3ccc(C(F)(F)F)cc3)C2)N2CCN=C2N1Cc1ccc(C(F)(F)F)c(F)c1: T
- O=C1C2=C(CCN(Cc3ccccc3)C2)N2CCN=C2N1Cc1ccc(F)cc1: F
- O=C1C2=C(CCN(Cc3ccccc3)C2)N2CCN=C2N1Cc1cc(F)c(F)c(F)c1: T
- O=C1C2=C(CCN(Cc3ccc(F)cc3)C2)N2CCN=C2N1Cc1ccc(C(F)(F)F)c(F)c1: F
- O=C1C2=C(CCN(Cc3cccc(F)c3)C2)N2CCN=C2N1Cc1ccc(I)cc1: F
- O=C1C2=C(CCN(Cc3ccccc3F)C2)N2CCN=C2N1Cc1ccc(C(F)(F)F)c(F)c1: T
- O=C1C2=C(CCN(Cc3ccccc3)C2)N2CCN=C2N1Cc1cccc(F)c1: F
- NCc1cccc(CN2C(=O)C3=C(CCN(Cc4cccc(F)c4)C3)N3CCN=C23)c1: T
- O=C1C2=C(CCN(Cc3cccc(F)c3)C2)N2CCN=C2N1Cc1ccc(C(F)(F)F)c(F)c1: F
